# subject.of.test: T1, Human OSM (human, UniProt P13725 26-221)
# T1 construct: Recombinant human OSM; also called hOSM; human Oncostatin M
# T1 sequence: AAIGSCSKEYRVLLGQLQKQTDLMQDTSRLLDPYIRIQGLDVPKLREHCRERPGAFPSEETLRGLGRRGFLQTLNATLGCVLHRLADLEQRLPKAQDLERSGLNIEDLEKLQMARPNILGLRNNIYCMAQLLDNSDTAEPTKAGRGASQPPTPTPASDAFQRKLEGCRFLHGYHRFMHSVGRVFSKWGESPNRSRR
# experimental.protocol: SPR (ProteOn XPR36 or Biacore T100), captured supernatant, OSM as analyte; hatched cell: separate experiment
property.name: pKd
// pKd is dimensionless: -log10 of concentration (M)

Can you share its pKd? I mean this binder: Pos 99 His (antibody, V domains shown, also called CDRH3 T99>H) VH: EVQLVESGGGLVQPGGSLRLSCAASGFTFSSYAMSWVRQAPGKGLEWVATISDGGSFTYYLDNVRGRFTISRDNAKNSLYLQMNSLRAEDTAVYYCARDVGHHTFWYFDVWGRGTLVTVSS VL: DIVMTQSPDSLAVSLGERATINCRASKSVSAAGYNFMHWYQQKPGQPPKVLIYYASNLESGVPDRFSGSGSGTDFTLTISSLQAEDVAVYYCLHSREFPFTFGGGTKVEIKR 7.81
